Known relative viability of a selection of molecules
Tested on: NCI-H2023
Test: relative viability (nuclei count vs DMSO), 5 days (fraction); higher = more cells survive
Conditions: first compound 0.3162 µM
Form rule: numeric answer, no unit written next to it.

Guide cases for relative viability, answers given:
>>> endpoint_result("CC(C)Oc1cc(Nc2nc(N[C@@H](C)c3ccc(F)cn3)ncc2Cl)n[nH]1 [AZ23] + C[C@]1(O)C[C@@H](c2nc(-c3ccc4ccc(-c5ccccc5)nc4c3)c3c(N)nccn32)C1 [Linsitinib] (partner 1 µM)")
0.731
>>> endpoint_result("CC(C)Oc1cc(Nc2nc(N[C@@H](C)c3ccc(F)cn3)ncc2Cl)n[nH]1 [AZ23] + CC1(C)CCC(c2ccc(Cl)cc2)=C(CN2CCN(c3ccc(C(=O)NS(=O)(=O)c4ccc(N[C@H](CCN5CCOCC5)CSc5ccccc5)c(S(=O)(=O)C(F)(F)F)c4)cc3)CC2)C1 [Navitoclax] (partner 0.5 µM)")
1.05

May I ask what relative viability has been recorded for CC(C)Oc1cc(Nc2nc(N[C@@H](C)c3ccc(F)cn3)ncc2Cl)n[nH]1 [AZ23] + Cc1nc(NC(=O)N2CCC[C@H]2C(N)=O)sc1-c1ccnc(C(C)(C)C(F)(F)F)c1 [Alpelisib] (partner 2 µM) ?
0.623

---

System: NCI-H1944
Assay: relative viability (nuclei count vs DMSO), 5 days (fraction); higher = more cells survive
Conditions: first compound 4 µM
The following compounds are shown together with reported relative viability values.
Answer field: number only, no words.

Below are worked cases with known answers.
>>> endpoint_result("C[C@@H]1CN(CC(=O)Nc2ccc3c(c2)Cc2cccc(-c4cc(=O)cc(N5CCOCC5)o4)c2S3)C[C@H](C)O1 + CC(=O)Nc1cccc(-n2c(=O)n(C3CC3)c(=O)c3c(Nc4ccc(I)cc4F)n(C)c(=O)c(C)c32)c1 [Trametinib] (partner 0.02 µM)")
0.425
>>> endpoint_result("Clc1ccc(Nc2nnc(Cc3ccncc3)c3ccccc23)cc1 [Vatalanib] + CS(=O)(=O)N1CCN(Cc2cc3nc(-c4cccc5[nH]ncc45)nc(N4CCOCC4)c3s2)CC1 [Pictilisib] (partner 1 µM)")
0.352

Requested read-out: relative viability. Entry: C[C@@H]1CN(CC(=O)Nc2ccc3c(c2)Cc2cccc(-c4cc(=O)cc(N5CCOCC5)o4)c2S3)C[C@H](C)O1 + COc1cc2c(Oc3ccc(NC(=O)C4(C(=O)Nc5ccc(F)cc5)CC4)cc3F)ccnc2cc1OCCCN1CCOCC1 [Foretinib] (partner 0.25 µM)
0.912

---

System: CAL-12T
Assay: relative viability (nuclei count vs DMSO), 5 days (fraction); higher = more cells survive
Conditions: first compound 4 µM
quantity_kind: relative viability
Reply: number alone, nothing else.

Example results:
>>> endpoint_result("COc1cc(N2CCC(C(N)=O)CC2)ccc1Nc1nc(N)c(Cl)c(Nc2ccccc2S(=O)(=O)C(C)C)n1 [HG-5-88-01] + CC(C)C[C@H](NC(=O)[C@H](Cc1ccccc1)NC(=O)c1cnccn1)B(O)O [Bortezomib] (partner 0.002 µM)")
0.579
>>> endpoint_result("Clc1ccc(Nc2nnc(Cc3ccncc3)c3ccccc23)cc1 [Vatalanib] + Cc1cc(Nc2cc(N3CCN(C)CC3)nc(Sc3ccc(NC(=O)C4CC4)cc3)n2)n[nH]1 [Tozasertib] (partner 0.1 µM)")
0.277
>>> endpoint_result("C[C@@H]1CN(CC(=O)Nc2ccc3c(c2)Cc2cccc(-c4cc(=O)cc(N5CCOCC5)o4)c2S3)C[C@H](C)O1 + C[C@]1(O)C[C@@H](c2nc(-c3ccc4ccc(-c5ccccc5)nc4c3)c3c(N)nccn32)C1 [Linsitinib] (partner 1 µM)")
0.54
>>> endpoint_result("COc1cc(N2CCC(C(N)=O)CC2)ccc1Nc1nc(N)c(Cl)c(Nc2ccccc2S(=O)(=O)C(C)C)n1 [HG-5-88-01] + CC(=O)c1c(C)c2cnc(Nc3ccc(N4CCNCC4)cn3)nc2n(C2CCCC2)c1=O [Palbociclib] (partner 0.5 µM)")
0.211
>>> endpoint_result("C[C@@H]1CN(CC(=O)Nc2ccc3c(c2)Cc2cccc(-c4cc(=O)cc(N5CCOCC5)o4)c2S3)C[C@H](C)O1 + Nc1nc2[nH]cc(CCc3ccc(C(=O)N[C@@H](CCC(=O)O)C(=O)O)cc3)c2c(=O)[nH]1 [Pemetrexed] (partner 0.2 µM)")
0.428

Can you look up relative viability on CAL-12T for COc1cc(N2CCC(C(N)=O)CC2)ccc1Nc1nc(N)c(Cl)c(Nc2ccccc2S(=O)(=O)C(C)C)n1 [HG-5-88-01] + Cc1cc(Nc2cc(N3CCN(C)CC3)nc(Sc3ccc(NC(=O)C4CC4)cc3)n2)n[nH]1 [Tozasertib] (partner 0.1 µM) ?
0.243

Next record, please: COc1cc(N2CCC(C(N)=O)CC2)ccc1Nc1nc(N)c(Cl)c(Nc2ccccc2S(=O)(=O)C(C)C)n1 [HG-5-88-01] + Cc1nc(NC(=O)N2CCC[C@H]2C(N)=O)sc1-c1ccnc(C(C)(C)C(F)(F)F)c1 [Alpelisib] (partner 2 µM)
0.874

Same question for Clc1ccc(Nc2nnc(Cc3ccncc3)c3ccccc23)cc1 [Vatalanib] + CC(C)C[C@H](NC(=O)[C@H](Cc1ccccc1)NC(=O)c1cnccn1)B(O)O [Bortezomib] (partner 0.002 µM) please.
1.05

Also check C[C@@H]1CN(CC(=O)Nc2ccc3c(c2)Cc2cccc(-c4cc(=O)cc(N5CCOCC5)o4)c2S3)C[C@H](C)O1 + Cc1nc(NC(=O)N2CCC[C@H]2C(N)=O)sc1-c1ccnc(C(C)(C)C(F)(F)F)c1 [Alpelisib] (partner 2 µM)
0.841

Can you check COc1cc(N2CCC(C(N)=O)CC2)ccc1Nc1nc(N)c(Cl)c(Nc2ccccc2S(=O)(=O)C(C)C)n1 [HG-5-88-01] + N=C(N)NC(=N)NCCc1ccccc1 [Phenformin] (partner 250 µM) next?
0.253

---

Test system: NCI-H1792
Experiment: relative viability (nuclei count vs DMSO), 5 days (fraction); higher = more cells survive
Settings: first compound 1.265 µM
quantity_kind: relative viability
// no unit, no text: just the number

>>> endpoint_result("Clc1ccc(Nc2nnc(Cc3ccncc3)c3ccccc23)cc1 [Vatalanib] + C[C@@H](Oc1cc(-c2cnn(C3CCNCC3)c2)cnc1N)c1c(Cl)ccc(F)c1Cl [Crizotinib] (partner 1 µM)")
0.912
>>> endpoint_result("Clc1ccc(Nc2nnc(Cc3ccncc3)c3ccccc23)cc1 [Vatalanib] + Cc1nc(Nc2ncc(C(=O)Nc3c(C)cccc3Cl)s2)cc(N2CCN(CCO)CC2)n1 [Dasatinib] (partner 0.075 µM)")
0.811
>>> endpoint_result("Clc1ccc(Nc2nnc(Cc3ccncc3)c3ccccc23)cc1 [Vatalanib] + CS(=O)(=O)N1CCN(Cc2cc3nc(-c4cccc5[nH]ncc45)nc(N4CCOCC4)c3s2)CC1 [Pictilisib] (partner 1 µM)")
0.276
>>> endpoint_result("Clc1ccc(Nc2nnc(Cc3ccncc3)c3ccccc23)cc1 [Vatalanib] + N=C(N)NC(=N)NCCc1ccccc1 [Phenformin] (partner 250 µM)")
0.236
>>> endpoint_result("Clc1ccc(Nc2nnc(Cc3ccncc3)c3ccccc23)cc1 [Vatalanib] + CC(C)C[C@H](NC(=O)[C@H](Cc1ccccc1)NC(=O)c1cnccn1)B(O)O [Bortezomib] (partner 0.002 µM)")
0.921

Now examine the next entry.
Form field - read-out: relative viability; system: NCI-H1792; submitted item: COc1cc(N2CCC(C(N)=O)CC2)ccc1Nc1nc(N)c(Cl)c(Nc2ccccc2S(=O)(=O)C(C)C)n1 [HG-5-88-01] + CC1(C)CCC(c2ccc(Cl)cc2)=C(CN2CCN(c3ccc(C(=O)NS(=O)(=O)c4ccc(N[C@H](CCN5CCOCC5)CSc5ccccc5)c(S(=O)(=O)C(F)(F)F)c4)cc3)CC2)C1 [Navitoclax] (partner 0.5 µM)
0.685

---

Test system: LOU-NH91
Assay: relative viability (nuclei count vs DMSO), 5 days (fraction); higher = more cells survive
Settings: first compound 0.4 µM
Label True when relative viability is strictly below 0.6; otherwise label False.

Please review the following examples before continuing.
>>> discrete_label("C[C@@H]1CN(CC(=O)Nc2ccc3c(c2)Cc2cccc(-c4cc(=O)cc(N5CCOCC5)o4)c2S3)C[C@H](C)O1 + Nc1ncn([C@H]2C[C@H](O)[C@@H](CO)O2)c(=O)n1 [Decitabine] (partner 2 µM)")
"False"
>>> discrete_label("COc1cc(N2CCC(C(N)=O)CC2)ccc1Nc1nc(N)c(Cl)c(Nc2ccccc2S(=O)(=O)C(C)C)n1 [HG-5-88-01] + NC(=O)Nc1cc(-c2cccc(F)c2)sc1C(=O)N[C@H]1CCCNC1 [AZD7762] (partner 0.2 µM)")
"False"
>>> discrete_label("Clc1ccc(Nc2nnc(Cc3ccncc3)c3ccccc23)cc1 [Vatalanib] + NC(=O)Nc1cc(-c2cccc(F)c2)sc1C(=O)N[C@H]1CCCNC1 [AZD7762] (partner 0.2 µM)")
"False"
>>> discrete_label("COc1cc(N2CCC(C(N)=O)CC2)ccc1Nc1nc(N)c(Cl)c(Nc2ccccc2S(=O)(=O)C(C)C)n1 [HG-5-88-01] + Cc1nc(NC(=O)N2CCC[C@H]2C(N)=O)sc1-c1ccnc(C(C)(C)C(F)(F)F)c1 [Alpelisib] (partner 2 µM)")
"False"
>>> discrete_label("C[C@@H]1CN(CC(=O)Nc2ccc3c(c2)Cc2cccc(-c4cc(=O)cc(N5CCOCC5)o4)c2S3)C[C@H](C)O1 + CC(=O)c1c(C)c2cnc(Nc3ccc(N4CCNCC4)cn3)nc2n(C2CCCC2)c1=O [Palbociclib] (partner 0.5 µM)")
"True"

Criterion: relative viability strictly below 0.6. Is it met by COc1cc(N2CCC(C(N)=O)CC2)ccc1Nc1nc(N)c(Cl)c(Nc2ccccc2S(=O)(=O)C(C)C)n1 [HG-5-88-01] + Cc1nc(Nc2ncc(C(=O)Nc3c(C)cccc3Cl)s2)cc(N2CCN(CCO)CC2)n1 [Dasatinib] (partner 0.075 µM) ?
True

Try this molecule next: COc1cc(N2CCC(C(N)=O)CC2)ccc1Nc1nc(N)c(Cl)c(Nc2ccccc2S(=O)(=O)C(C)C)n1 [HG-5-88-01] + C[C@@H](Oc1cc(-c2cnn(C3CCNCC3)c2)cnc1N)c1c(Cl)ccc(F)c1Cl [Crizotinib] (partner 1 µM)
False
